Protein target, amino acids: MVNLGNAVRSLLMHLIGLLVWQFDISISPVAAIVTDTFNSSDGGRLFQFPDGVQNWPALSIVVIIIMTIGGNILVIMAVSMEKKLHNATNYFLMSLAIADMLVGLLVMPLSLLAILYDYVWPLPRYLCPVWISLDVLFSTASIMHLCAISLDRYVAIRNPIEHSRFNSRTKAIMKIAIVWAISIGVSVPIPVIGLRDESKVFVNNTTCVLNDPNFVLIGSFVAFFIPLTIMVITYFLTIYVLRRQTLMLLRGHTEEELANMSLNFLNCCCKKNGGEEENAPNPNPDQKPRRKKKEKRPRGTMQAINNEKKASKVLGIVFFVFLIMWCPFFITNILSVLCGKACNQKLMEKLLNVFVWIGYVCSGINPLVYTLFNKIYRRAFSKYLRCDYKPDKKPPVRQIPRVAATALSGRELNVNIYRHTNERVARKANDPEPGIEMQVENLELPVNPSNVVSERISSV
Reported metric: Ki (µM)
Write down the numeric answer in µM and omit the unit.

Using the record for CN(C)CCC(c1ccc(Cl)cc1)c1ccccn1 (configuration not stated) [clorfeniramina] , report its Ki. 3.12

Source: BindingDB's records for PubMed 3139864
